- protocol.notes: Ratio of LD50 for po dosed mouse to PD50 for acute toxicity in po dosed mouse assessed as concentration required to produce 50% loss of righting reflex
- Type: organism-based
- conditions: in vivo

# compound, selectivity ratio
records = [
    ("Cc1cccc(NC(=O)/N=C2\\CCCN2C)c1", 1),
    ("COc1cccc(NC(=O)/N=C2\\CCCN2C)c1", 1.5),
    ("CN1CCC/C1=N\\C(=O)Nc1cccc(Cl)c1", 1.6),
    ("CN1CCC/C1=N\\C(=O)Nc1ccc([N+](=O)[O-])cc1", 1),
    ("CNC1=Nc2ccc(Cl)cc2C(c2ccccc2)=[N+]([O-])C1 [CHLORDIAZEPOXIDE]", 1.5),
    ("CN1CCC/C1=N\\C(=O)Nc1c(Cl)cccc1Cl", 1.8),
    ("CN1CCC/C1=N\\C(=O)Nc1c(Br)cccc1Br", 1.6),
    ("COc1cccc(OC)c1NC(=O)/N=C1\\CCCN1C", 1.4),
    ("CCc1cccc(CC)c1NC(=O)/N=C1\\CCCN1C", 2.3),
    ("Cc1cccc(Cl)c1NC(=O)/N=C1\\CCCN1C", 1.9),
    ("COc1cccc(NC(=O)/N=C2\\CCC(C)N2C)c1 (configuration not stated)", 1.5),
    ("CCC1(c2ccccc2)C(=O)NC(=O)NC1=O [PHENOBARBITAL]", 3),
    ("CCN1CCC/C1=N\\C(=O)Nc1cccc(Cl)c1", 1.2),
    ("COc1ccccc1OCC(O)COC(N)=O (configuration not stated) [METHOCARBAMOL]", 1.9),
    ("CN1CCC/C1=N\\C(=O)Nc1ccccc1", 1),
    ("CN1CCC/C1=N\\C(=O)Nc1cccc(F)c1", 1),
    ("CN1CCC/C1=N\\C(=O)Nc1cccc(Br)c1", 1.1),
]

----------
- Test system: Mus musculus
- protocol.notes: Anticonvulsant activity in po dosed mouse assessed as blockade of supramaximal electroshock-induced […] seizure
- Assay type: functional
Active and inactive are the calls of the source. The rule behind the calls is not given here.
Possible outcomes: active, inactive

# compound, class
records = [
    ("Cc1ccccc1NC(=O)/N=C1\\CCCN1C", "active"),
    ("O=C1NC(=O)C(c2ccccc2)(c2ccccc2)N1", "active"),
    ("CN1CC(c2ccccc2)C/C1=N\\C(=O)Nc1ccccc1 (stereo not drawn)", "inactive"),
    ("Cc1cccc(C)c1NC(=O)/N=C1\\CCC(C)N1C (stereo not drawn)", "inactive"),
    ("CC1/C(=N\\C(=O)Nc2c(Cl)cccc2Cl)N(C)CC1c1ccccc1 (stereo not drawn)", "inactive"),
    ("CSc1ccc(NC(=O)/N=C2\\CCCN2C)cc1", "inactive"),
    ("CN1CCCC/C1=N\\C(=O)Nc1ccccc1", "inactive"),
    ("CN1CCCCC/C1=N\\C(=O)Nc1cccc(Cl)c1", "inactive"),
    ("CN1CCCCC/C1=N\\C(=O)Nc1c(Cl)cccc1Cl", "inactive"),
    ("CN1CCC/C1=N\\C(=S)Nc1ccccc1", "inactive"),
    ("CN1CCC/C1=N\\C(=S)Nc1ccc([N+](=O)[O-])cc1", "inactive"),
    ("CN1CC(C)(C)C/C1=N\\C(=O)Nc1c(Cl)cccc1Cl", "inactive"),
    ("Cc1cccc(C)c1NC(=O)/N=C1\\CCCN1Cc1ccccc1", "inactive"),
]

The reported numbers originate from ChEMBL document CHEMBL3243921.
